Target: JAK3 (Homo sapiens, UniProt P52333)
Construct: purchased Life technology
Sequence (P52333 whole entry): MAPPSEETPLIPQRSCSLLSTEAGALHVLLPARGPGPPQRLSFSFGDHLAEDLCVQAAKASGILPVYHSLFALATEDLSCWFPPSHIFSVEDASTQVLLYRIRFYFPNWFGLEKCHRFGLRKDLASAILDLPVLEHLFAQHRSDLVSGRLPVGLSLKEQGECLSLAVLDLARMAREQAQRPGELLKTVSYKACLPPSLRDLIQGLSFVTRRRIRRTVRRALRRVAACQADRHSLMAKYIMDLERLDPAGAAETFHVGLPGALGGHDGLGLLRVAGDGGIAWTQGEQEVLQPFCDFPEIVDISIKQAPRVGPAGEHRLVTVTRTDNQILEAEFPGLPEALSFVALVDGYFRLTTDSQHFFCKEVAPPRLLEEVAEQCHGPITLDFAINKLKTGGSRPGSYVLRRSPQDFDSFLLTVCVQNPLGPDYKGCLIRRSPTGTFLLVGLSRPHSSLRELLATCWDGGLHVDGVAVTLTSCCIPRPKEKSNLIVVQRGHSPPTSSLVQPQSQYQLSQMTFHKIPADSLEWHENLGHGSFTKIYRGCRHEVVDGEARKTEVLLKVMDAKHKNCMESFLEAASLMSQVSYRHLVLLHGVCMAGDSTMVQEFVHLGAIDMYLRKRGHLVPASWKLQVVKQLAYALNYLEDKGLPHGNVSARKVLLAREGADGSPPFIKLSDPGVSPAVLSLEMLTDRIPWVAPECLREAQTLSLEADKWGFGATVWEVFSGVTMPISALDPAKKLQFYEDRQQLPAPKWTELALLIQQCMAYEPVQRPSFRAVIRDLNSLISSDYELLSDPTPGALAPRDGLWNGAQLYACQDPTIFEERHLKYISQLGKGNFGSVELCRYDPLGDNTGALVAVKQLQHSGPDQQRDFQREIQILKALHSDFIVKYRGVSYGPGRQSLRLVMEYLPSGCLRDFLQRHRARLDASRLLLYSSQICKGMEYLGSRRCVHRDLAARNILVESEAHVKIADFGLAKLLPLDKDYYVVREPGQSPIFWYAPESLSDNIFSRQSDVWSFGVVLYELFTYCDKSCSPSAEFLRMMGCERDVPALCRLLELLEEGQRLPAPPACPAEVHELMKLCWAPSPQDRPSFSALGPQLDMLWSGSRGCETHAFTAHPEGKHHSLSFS
Assay: Test for in vitro activity of JAK3 kinase (LANCE Ultra ULight-JAK-1 peptide)
Assay type: biochemical
Conditions: selectivity ratio JAK3 versus JAK2; class symbol
measurementKind: JAK3/JAK2 (times)

Reference set (6 entries):
CCS(=O)(=O)N1CC(CC#N)(n2cc(-c3cccn4nc(NC(=O)C(F)(F)F)nc34)cn2)C1 [WX22]
F3 (10 < F3 ≤ 25)
CS(=O)(=O)N1CC(CC#N)(n2cc(-c3nccc4nc(NC(=O)CC#N)nn34)cn2)C1 [WX26]
F3 (10 < F3 ≤ 25)
N#CCC1(n2cc(-c3nccc4nc(NC(=O)C5CC5)nn34)cn2)CN(C(=O)C2CC2)C1 [WX11]
F3 (10 < F3 ≤ 25)
CCS(=O)(=O)N1CC(CC#N)(n2cc(-c3cccn4nc(NC(=O)C5CC5)nc34)cn2)C1 [WX20]
F4 (25 < F4 ≤ 100)
N#CCC1(n2cc(-c3nccc4nc(NC(=O)C5CC5)nn34)cn2)CN(S(=O)(=O)C(F)(F)F)C1 [WX02]
F3 (10 < F3 ≤ 25)
COCC(=O)Nc1nc2ccnc(-c3cnn(C4(CC#N)CN(S(=O)(=O)C(F)(F)F)C4)c3)n2n1 [WX24]
F4 (25 < F4 ≤ 100)

Input: Look up JAK3/JAK2 (times) for this compound: CS(=O)(=O)N1CC(CC#N)(n2cc(-c3cccc4nc(NC(=O)C5CC5)sc34)cn2)C1 [WX28]
Output: F4 (25 < F4 ≤ 100)

Input: What about this compound? N#CCC1(n2cc(-c3cccc4nc(NC(=O)C5CC5)nn34)cn2)CN(S(=O)(=O)C2CC2)C1 [WX08]
Output: F4 (25 < F4 ≤ 100)

Input: What about this compound? N#CCC1(n2cc(-c3cccc4ncnn34)cn2)CN(S(=O)(=O)C(F)(F)F)C1 [WX17]
Output: F3 (10 < F3 ≤ 25)

----------
Target: JAK1 (Homo sapiens, UniProt P23458)
Construct: purchased Life technology
Sequence (P23458 whole entry): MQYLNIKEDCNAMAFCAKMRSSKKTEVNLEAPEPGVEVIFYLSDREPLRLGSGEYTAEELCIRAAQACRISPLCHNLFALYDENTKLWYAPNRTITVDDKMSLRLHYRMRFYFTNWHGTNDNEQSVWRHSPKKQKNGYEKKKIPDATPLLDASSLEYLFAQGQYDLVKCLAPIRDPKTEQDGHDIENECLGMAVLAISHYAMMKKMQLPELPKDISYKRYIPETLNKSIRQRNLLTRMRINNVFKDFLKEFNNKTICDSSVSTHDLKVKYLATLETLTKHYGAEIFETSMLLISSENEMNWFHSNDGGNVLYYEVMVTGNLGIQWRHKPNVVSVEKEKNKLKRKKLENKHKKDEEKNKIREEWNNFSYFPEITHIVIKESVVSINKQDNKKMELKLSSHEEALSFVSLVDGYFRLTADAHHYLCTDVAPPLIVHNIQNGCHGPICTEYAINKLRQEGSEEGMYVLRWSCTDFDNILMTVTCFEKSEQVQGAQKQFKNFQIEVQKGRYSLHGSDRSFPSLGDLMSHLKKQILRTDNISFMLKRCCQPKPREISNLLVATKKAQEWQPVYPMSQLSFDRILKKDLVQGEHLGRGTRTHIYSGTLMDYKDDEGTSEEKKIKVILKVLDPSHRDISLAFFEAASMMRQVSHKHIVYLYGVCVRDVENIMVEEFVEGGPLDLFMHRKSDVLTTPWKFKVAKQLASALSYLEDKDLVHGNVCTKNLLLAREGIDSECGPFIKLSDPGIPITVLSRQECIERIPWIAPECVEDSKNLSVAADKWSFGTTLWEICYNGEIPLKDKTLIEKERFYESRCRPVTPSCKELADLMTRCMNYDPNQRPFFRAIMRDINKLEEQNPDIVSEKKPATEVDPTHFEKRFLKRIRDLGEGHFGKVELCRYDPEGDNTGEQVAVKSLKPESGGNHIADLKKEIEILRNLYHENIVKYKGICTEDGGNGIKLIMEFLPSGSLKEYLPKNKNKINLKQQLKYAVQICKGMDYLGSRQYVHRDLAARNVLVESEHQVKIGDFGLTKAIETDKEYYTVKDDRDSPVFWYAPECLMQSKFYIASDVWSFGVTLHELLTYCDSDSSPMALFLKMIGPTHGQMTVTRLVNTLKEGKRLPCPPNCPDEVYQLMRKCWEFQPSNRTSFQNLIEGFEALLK
Experiment: Test for in vitro activity of JAK1 kinase (LANCE Ultra ULight-JAK-1 peptide)
Format: biochemical
Conditions: selectivity ratio JAK1 versus JAK2; class symbol
measurementKind: JAK1/JAK2 (times)

CN(C)Cc1cc(C(=O)N2CCC(N3CC(CC#N)(n4cc(-c5cccc6nc(NC(=O)C7CC7)nn56)cn4)C3)CC2)nc(C(F)(F)F)n1 [WX33]
F1 (1 ≤ F1 ≤ 5)
COCC(=O)Nc1nc2ccnc(-c3cnn(C4(CC#N)CN(S(=O)(=O)C(F)(F)F)C4)c3)n2n1 [WX24]
F3 (10 < F3 ≤ 25)
N#CCC1(n2cc(-c3nccc4nc(N)nn34)cn2)CN(S(=O)(=O)C(F)(F)F)C1 [WX05]
F1 (1 ≤ F1 ≤ 5)
CCS(=O)(=O)N1CC(CC#N)(n2cc(-c3cccc4nc(NC(=O)C5CC5)nn34)cn2)C1 [WX16]
F1 (1 ≤ F1 ≤ 5)
CCS(=O)(=O)N1CC(CC#N)(n2cc(-c3cccn4nc(NC(=O)C5CC5)nc34)cn2)C1 [WX20]
F1 (1 ≤ F1 ≤ 5)

Input: Look up JAK1/JAK2 (times) for this molecule: N#CCC1(n2cc(-c3cccc4nc(NC(=O)C5CC5)nn34)cn2)CNC1 [WX00]
Output: F1 (1 ≤ F1 ≤ 5)

Input: What about this molecule? CS(=O)(=O)N1CC(CC#N)(n2cc(-c3cccc4nc(N)sc34)cn2)C1 [WX27]
Output: F3 (10 < F3 ≤ 25)

These entries and their values trace back to patent US10174036B2.
